Recorded values, source patent US20250025443A1.

Target Or System: SARS-CoV-2 Papain-Like Protease (PLpro) (Severe acute respiratory syndrome coronavirus 2 (2019-nCoV) (SARS-CoV-2), UniProt P0DTD1)
Assay Text: biochemical
Conditions Used: PLpro enzymatic fluorescence assay; class symbols; read-out: PLpro IC50
Experimental Endpoint: IC50

For this compound ( "Cc1ccc(OC[C@@H]2CCN2C)cc1C(=O)NC1(c2cc(C3=CCCC3)cc3ncccc23)CC1" ), measured IC50 is < 100 nM

IC50 in this record for "COc1cccc(C2(NC(=O)c3cc(OCCN(C)C)ccc3C)CC2)c1" : > 5000 nM

Entry under test: "Cc1ccc(OC[C@@H]2CCN2C)cc1C(=O)NC1(c2cc(-c3ccc(CN[C@H]4CC[C@@H](O)C4)s3)cc3ncccc23)CC1" . Its IC50 was < 100 nM

Form field IC50, entry "C=Cc1cc(C2(NC(=O)c3cc(OC[C@@H]4CCN4)ccc3C)CC2)c2cccnc2c1" : < 100 nM
